- System Name: T1, recombinant human IL-12 (rhIL-12) (human, UniProt P29459 23-219; P29460 23-328)
- T1 sequence (looked up) 1: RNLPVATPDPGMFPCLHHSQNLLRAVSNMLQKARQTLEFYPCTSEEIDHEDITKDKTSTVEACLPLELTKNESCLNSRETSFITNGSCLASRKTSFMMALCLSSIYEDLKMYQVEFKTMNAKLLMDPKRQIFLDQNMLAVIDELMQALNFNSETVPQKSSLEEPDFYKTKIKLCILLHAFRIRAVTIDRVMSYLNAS
- T1 sequence (looked up) 2: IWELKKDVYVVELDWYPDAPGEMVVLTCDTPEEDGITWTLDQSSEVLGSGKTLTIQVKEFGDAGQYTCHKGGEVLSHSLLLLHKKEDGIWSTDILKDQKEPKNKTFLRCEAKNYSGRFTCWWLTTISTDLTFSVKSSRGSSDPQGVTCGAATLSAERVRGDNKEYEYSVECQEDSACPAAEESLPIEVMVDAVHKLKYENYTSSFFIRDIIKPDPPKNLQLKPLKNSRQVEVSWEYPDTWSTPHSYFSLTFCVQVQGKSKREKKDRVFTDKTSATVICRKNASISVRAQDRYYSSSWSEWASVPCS
- Test Name: cell-based or functional assay
Reported Endpoint: PHA assay IC50 (nM)

1. Y61-L94F (scFv, V domains shown) VH: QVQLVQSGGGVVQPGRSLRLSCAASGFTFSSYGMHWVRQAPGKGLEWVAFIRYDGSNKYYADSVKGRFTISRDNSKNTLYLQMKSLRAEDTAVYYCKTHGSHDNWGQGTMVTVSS VL: SYVLTQPPSVSGTPGQRVTISCSGGRSNIGSNTVKWYQQLPGTAPKLLIYGNDQRPSGVPDRFSGSKSGTSASLAITGVQAEDEADYYCQSYDRFTHPALLFGTGTKVTVL; 0.06
2. Y177 (scFv, V domains shown, scFv clone) VH: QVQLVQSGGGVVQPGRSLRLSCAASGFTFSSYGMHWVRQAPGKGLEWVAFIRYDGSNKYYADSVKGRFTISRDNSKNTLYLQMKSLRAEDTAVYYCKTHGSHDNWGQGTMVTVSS VL: SYVLTQPPSVSGTPGQRVTISCSGGRSNIGSNTVKWYQQLPGTAPKLLIYGNDQRPSGVPDRFSGSKSGTSASLAITGVQAEDEADYYCQSYDRGSHPTLIFGTGTKVTVL; 1
3. J695 (antibody, human IgG1, V domains shown, human IgG1 with lambda light chain) VH: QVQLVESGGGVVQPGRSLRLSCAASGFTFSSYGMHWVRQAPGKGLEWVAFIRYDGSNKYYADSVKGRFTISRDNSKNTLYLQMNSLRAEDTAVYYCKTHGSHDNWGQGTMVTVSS VL: QSVLTQPPSVSGAPGQRVTISCSGSRSNIGSNTVKWYQQLPGTAPKLLIYYNDQRPSGVPDRFSGSKSGTSASLAITGLQAEDEADYYCQSYDRYTHPALLFGTGTKVTVLG; 0.01
